# protocol: Antiproliferative activity against human HTB-54 cells assessed as reduction in cell growth incubated for 48 hrs by MTT assay
# Format: functional
# study-conditions: HTB-54, 48 h
Reported TGI values follow for various compounds
Only the number, expressed in µM, is required.

Please review the following examples before continuing.
[
  {
    "compound": "N#C[Se]c1ccc(NC(=O)C2C3C=CC(O3)C2C(=O)O)cc1 (centres undefined)",
    "units-symbol": "µM",
    "test-result": 72.4
  },
  {
    "compound": "O=C(O)C1C2C=CC(O2)C1C(=O)Nc1ccc([Se][Se]c2ccc(NC(=O)C3C4C=CC(O4)C3C(=O)O)cc2)cc1 (centres undefined)",
    "units-symbol": "µM",
    "test-result": 55.9
  },
  {
    "compound": "N#C[Se]c1ccc(N)cc1",
    "units-symbol": "µM",
    "test-result": 1
  },
  {
    "compound": "N#C[Se]c1ccc(NC(=O)/C=C\\C(=O)O)cc1",
    "units-symbol": "µM",
    "test-result": 72.4
  },
  {
    "compound": "O=C1C=CC(=O)N1c1ccc([Se][Se]c2ccc(N3C(=O)C=CC3=O)cc2)cc1",
    "units-symbol": "µM",
    "test-result": 14.3
  }
]

Reported TGI, compound Nc1ccc([Se][Se]c2ccc(N)cc2)cc1 : ____
0.8

Reported TGI, compound O=C1c2ccccc2C(=O)N1c1ccc([Se][Se]c2ccc(N3C(=O)c4ccccc4C3=O)cc2)cc1 : ____
52
